System: A549
Experiment: relative viability (normalised to negative control = 1, bortezomib = 0) (fraction); higher = less cytotoxic
Conditions: inflammatory serum-free RHB-A with cytokines + LPS; 5 d + 24 h CellTiter-Blue; compound 300 nM; GSK126 pretreatment: 5 uM GSK126
Counter-ions that a name gives are not always drawn.
yes (1) if relative viability is below 0.9. no (0) if not; exact matches included in no (0).

• CN(C)C/C=C/C(=O)Nc1cc2c(Nc3ccc(F)c(Cl)c3)ncnc2cc1O[C@H]1CCOC1 = yes (1)
• Cc1ncc(-c2ccnc(Nc3ccc(S(C)(=O)=O)cc3)n2)n1C(C)C = yes (1)
• NCC(=O)CCC(=O)O [Aminolevulinic acid hydrochloride; Aminolevulinic acid] = no (0)
• Nc1nc(Cl)nc2c1ncn2[C@@H]1O[C@H](CO)[C@@H](O)[C@@H]1F = yes (1)
• O=c1[nH]cc(F)c(=O)[nH]1 = yes (1)
• CCS(=O)(=O)c1cccc(-c2cc(C(=O)NC3CCN(C)CC3)c(C)c3[nH]c4ncc(C)cc4c23)c1 = yes (1)
• C[C@@H]1CCN(C(=O)CC#N)C[C@@H]1N(C)c1ncnc2[nH]ccc12 = no (0)
• CN(C)Cc1cccc(N=C(c2ccccc2)c2c(O)[nH]c3cc(C(=O)N(C)C)ccc23)c1 = no (0)
• CCS(=O)(=O)Nc1ccc2[nH]c(O)c(C(=Nc3ccc(CN4CCCCC4)cc3)c3ccccc3)c2c1 = yes (1)
• CC(C)CC(=O)Nc1n[nH]c2c1CN(C(=O)C1CCN(C)CC1)C2(C)C = yes (1)
• COc1cc2ncnc(Nc3cccc(Br)c3)c2cc1OC = yes (1)
• COc1nc(N)nc2c1ncn2[C@@H]1O[C@H](CO)[C@@H](O)[C@@H]1O = no (0)
• O=C(Nc1ccc(OC(F)(F)F)cc1)c1sccc1NCc1ccnc2ccccc12 = no (0)
• C#CCC(Cc1cnc2nc(N)nc(N)c2n1)c1ccc(C(=O)N[C@@H](CCC(=O)O)C(=O)O)cc1 (stereo not given in full) [pralatrexate] = yes (1)
• CN(C)/N=N/c1[nH]cnc1C(N)=O = no (0)
• COc1cc2c(Oc3ccc(NC(=O)C4(C(=O)Nc5ccc(F)cc5)CC4)cc3F)ccnc2cc1OCCCN1CCOCC1 = yes (1)
